molecular target: 5-hydroxytryptamine receptor 4 (Cavia porcellus); test: Relative ability to increase cholinergically mediated contractions in isolated ileum of guinea pig; assay type: functional, tissue-based
# if value of EC20 reaches 0.03 µg/mL, tag TRUE; if it stays below, tag FALSE

• COc1cc(N)c(Cl)cc1C(=O)NC1CC(C)NCC12CCC2 (configuration not stated) = TRUE
• COc1cc(N)c(Cl)cc1C(=O)NC1CN2CCCC1C2 (stereo in doubt; endo) = FALSE
• CCN(CC)CCNC(=O)c1cc(Cl)c(N)cc1OC [METOCLOPRAMIDE] = TRUE
• COc1cc(N)c(Cl)cc1C(=O)NC1CCN2CCCC1C2 (stereo in doubt; 5d) = FALSE
• COc1cc(N)c(Cl)cc1C(=O)NC1CCN2CCCC1C2 (single isomer, unassigned; (-)) = TRUE
• COc1cc(N)c(Cl)cc1C(=O)NC1CCNCC12CCC2C (configuration not stated) = FALSE
• COc1cc(N)c(Cl)cc1C(=O)N[C@H]1CCN2CCC[C@@H]1C2 (relative stereo) = TRUE
• COc1cc(N)c(Cl)cc1C(=O)NC1CCN2CCCC1C2 (stereo in doubt) = FALSE
• COc1cc(N)c(Cl)cc1C(=O)N[C@H]1CCN2CCC[C@@H]1C2 = FALSE
• COc1cc(N)c(Cl)cc1C(=O)NC1CCNC(C)C12CCC2C (configuration not stated) = TRUE

Determine whether measured EC20 meets or exceeds 0.03 µg/mL for COc1cc(N)c(Cl)cc1C(=O)NC1CC2CCCN(C2)C1 (configuration not stated)
FALSE

// inclusive: EC20 at least 0.03 µg/mL? input: COc1cc(N)c(Cl)cc1C(=O)NC1CN2CCCC1C2 (stereo in doubt; exo)
TRUE

* * *

Overview of reported log10(ID50) across a group of compounds:
biological target: Serotonin 3 (5-HT3) receptor (Rattus norvegicus) (UniProt P35563+Q9JJ16); assay: Tested for 5-HT 3 receptor antagonist potency by ability to inhibit the reflex bradycardia, the Bezold-Jarisch reflex in the rat; assay type: functional
The figures below represent log10 of ID50, where ID50 is stated in µg/kg.

Identify measured log10(ID50) obtained with Serotonin 3 (5-HT3) receptor (Rattus norvegicus) (UniProt P35563+Q9JJ16) for COc1cc(N)c(Cl)cc1C(=O)NC1CCN2CCOC1C2 (stereo in doubt) .
1.28

* * *

target: 5-hydroxytryptamine receptor 4 (Rattus norvegicus); assay: Stimulatory activity of intragastric pressure was tested in the rat; assay type: functional
Observed Property: ED50 (mg/kg)
// note: answer is a bare numeric in mg/kg

* COc1cc(N)c(Cl)cc1C(=O)NC1CCN2CCOC1C2 (single isomer, unassigned; (-)) | 0.1

Item COc1cc(N)c(Cl)cc1C(=O)NC1CCN2CCCC1C2 (stereo in doubt; 5d) : provide ED50
0.1

Please indicate ED50 recorded for COc1cc(N)c(Cl)cc1C(=O)NC1CCN2CCCC1C2 (stereo in doubt)
0.1

Please indicate ED50 recorded for COc1cc(N)c(Cl)cc1C(=O)NC1CCN2CCSC1C2 (centres undefined)
0.5

Name the recorded ED50 of the item CCN(CC)CCNC(=O)c1cc(Cl)c(N)cc1OC [METOCLOPRAMIDE] in your answer.
1

// fetch ED50 given entry COc1cc(N)c(Cl)cc1C(=O)NC1CN2CCCC1C2 (stereo in doubt; endo)
0.06

Output measured ED50 for this item: COc1cc(N)c(Cl)cc1C(=O)NC1CCN2CCOC1C2 (single isomer, unassigned; (+))
0.1

# return recorded ED50 for input COc1cc(N)c(Cl)cc1C(=O)NC1CCN2CCOC1C2 (stereo in doubt)
0.1
